Assay: Inhibitory activity against porcine heart Adenylate deaminase (AMPDA)
Design: species or system Sus scrofa
measurement-kind: Ki (µM)

The following compounds have reported results that may help.
compound: COC(=O)c1ccccc1CCCn1cnc2c1NC=NCC2O (centres undefined)
observed: 32.7

compound: O=C(O)c1cc(CCn2cnc3c2NC=NCC3O)cs1 (centres undefined)
observed: 2.2

compound: CCOC(=O)Cc1cccc(Cn2cnc3c2NC=NCC3O)c1 (centres undefined)
observed: 15.9

compound: O=C(O)c1sccc1CCCn1cnc2c1NC=NCC2O (centres undefined)
observed: 4.8

compound: COC(=O)Cc1ccc(Cn2cnc3c2NC=NCC3O)cc1 (centres undefined)
observed: 92.6

I: O=C(O)c1ccc(CCn2cnc3c2NC=NCC3O)s1 (centres undefined)
II: COC(=O)c1cccc(CCn2cnc3c2NC=NCC3O)c1 (centres undefined)
III: O=C(O)c1cc(CCn2cnc3c2NC=NCC3O)ccc1Cl (centres undefined)
IV: Cc1ccc(C(=O)O)cc1CCn1cnc2c1NC=NCC2O (centres undefined)
Reorder the items by Ki, least to greatest. List the labels according to the requested ordering.
IV, III, I, II

----------
Molecular target: Adenosine deaminase (Bos taurus, UniProt P56658)
Sequence (P56658 whole entry): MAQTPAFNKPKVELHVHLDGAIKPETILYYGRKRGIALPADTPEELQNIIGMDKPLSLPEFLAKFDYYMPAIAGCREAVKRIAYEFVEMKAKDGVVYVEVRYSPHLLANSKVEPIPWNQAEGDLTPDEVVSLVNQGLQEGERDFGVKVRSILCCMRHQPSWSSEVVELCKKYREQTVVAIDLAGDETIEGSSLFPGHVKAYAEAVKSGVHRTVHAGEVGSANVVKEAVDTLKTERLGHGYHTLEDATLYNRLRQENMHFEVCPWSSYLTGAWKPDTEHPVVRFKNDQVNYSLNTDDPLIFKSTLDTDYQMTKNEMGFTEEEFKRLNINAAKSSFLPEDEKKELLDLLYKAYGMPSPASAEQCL
Assay: Inhibitory activity against calf intestinal Adenosine deaminase (ADA)
measurement-kind: Ki (µM)

For orientation, consider the following solved cases.
molecule: COC(=O)c1ccccc1OCCn1cnc2c1NC=NCC2O (stereo not given)
study-target: Adenosine deaminase (Bos taurus, UniProt P56658)
reading-unit: µM
Ki: 2.3

molecule: O=C(O)c1ccc2ccccc2c1CCCn1cnc2c1NC=NCC2O (stereo not given)
study-target: Adenosine deaminase (Bos taurus, UniProt P56658)
reading-unit: µM
Ki: 1.8

molecule: COC(=O)c1ccccc1SCCn1cnc2c1NC=NCC2O (stereo not given)
study-target: Adenosine deaminase (Bos taurus, UniProt P56658)
reading-unit: µM
Ki: 11.9

I: Cc1ccc(C(=O)O)cc1CCCn1cnc2c1NC=NCC2O (stereo not given)
II: CCOC(=O)c1cc(CC)cc(CCn2cnc3c2NC=NCC3O)c1 (stereo not given)
Input pair: I , II . Output: entry with lower Ki. Indicate your choice by writing its label.
I
(I: 1.2 µM, II: 8.9 µM)

----------
Biological target: Adenosine deaminase (Bos taurus, UniProt P56658)
Assay: Inhibitory activity against calf intestinal Adenosine deaminase (ADA)
measurement-kind: Ki

Worked examples, 10 compounds total:
compound: CCOC(=O)Cc1cccc(Cn2cnc3c2NC=NCC3O)c1 (centres undefined)
Ki: 5.6 µM

compound: O=C(O)c1cc(CCn2cnc3c2NC=NCC3O)cc(-c2ccccc2)c1 (centres undefined)
Ki: > 7.5 µM

compound: Cc1ccc(C(=O)OCc2ccccc2)cc1CCn1cnc2c1NC=NCC2O (centres undefined)
Ki: 2.6 µM

compound: CC(C)c1cccc(C(=O)O)c1SCCn1cnc2c1NC=NCC2O (centres undefined)
Ki: > 7.5 µM

compound: COc1ccc(C(=O)O)cc1CCn1cnc2c1NC=NCC2O (centres undefined)
Ki: > 7.5 µM

compound: CCCc1ccc(C(=O)O)cc1CCn1cnc2c1NC=NCC2O (centres undefined)
Ki: > 7.5 µM

compound: COC(=O)c1c(F)cccc1CCCn1cnc2c1NC=NCC2O (centres undefined)
Ki: 0.32 µM

compound: Cc1ccc(C(=O)O)c(CCCn2cnc3c2NC=NCC3O)c1 (centres undefined)
Ki: 5.2 µM

compound: COC(=O)c1ccc(OC)c(CCCn2cnc3c2NC=NCC3O)c1 (centres undefined)
Ki: 0.13 µM

compound: O=C(O)Cc1cccc(CCn2cnc3c2NC=NCC3O)c1 (centres undefined)
Ki: > 500 µM

The compound Cc1ccc(C(=O)O)cc1CCn1cnc2c1NC=NCC2O (centres undefined) , tested on Adenosine deaminase (Bos taurus, UniProt P56658), showed Ki of > 100 µM

Item O=C(O)c1cc(CCn2cnc3c2NC=NCC3O)cc(-c2ccc(F)cc2)c1 (centres undefined) ; assay system Adenosine deaminase (Bos taurus, UniProt P56658); Ki reported as > 7.5 µM

Bench note, Adenosine deaminase (Bos taurus, UniProt P56658): Cc1ccc(CCn2cnc3c2NC=NCC3O)cc1C(=O)O (centres undefined) , Ki reads > 7.5 µM

Item COC(=O)c1ccc(Cn2cnc3c2NC=NCC3O)cc1 (centres undefined) ; assay system Adenosine deaminase (Bos taurus, UniProt P56658); Ki reported as 8.7 µM

Assay Adenosine deaminase (Bos taurus, UniProt P56658), sample O=C(O)c1cccc(C#CCn2cnc3c2NC=NCC3O)c1 (centres undefined) , Ki read: 2.3 µM

Param item: CCOC(=O)c1cc(CCn2cnc3c2NC=NCC3O)ccc1C (centres undefined) ; param system: Adenosine deaminase (Bos taurus, UniProt P56658); output Ki: > 7.5 µM

With Adenosine deaminase (Bos taurus, UniProt P56658) as the test system, O=C(O)c1cccc(CCn2cnc3c2NC=NCC3O)c1 (centres undefined) showed Ki of > 7.5 µM

Ki of O=C(O)c1ccc(CO)c(CCn2cnc3c2NC=NCC3O)c1 (centres undefined) , assay on Adenosine deaminase (Bos taurus, UniProt P56658), is > 7.5 µM

Result for COC(=O)c1ccc(C)cc1CCCn1cnc2c1NC=NCC2O (centres undefined) , tested on Adenosine deaminase (Bos taurus, UniProt P56658), Ki: 0.06 µM

----------
Target: Adenosine deaminase (Bos taurus)
Test: Compound was evaluated for its inhibitory activity against calf intestinal Adenosine deaminase (ADA)
measurement-kind: Ki (nM)
Unit nM implied. Number only.

Observed Ki, Adenosine deaminase (Bos taurus), CNOC(=O)c1ccc(C)c(CCCn2cnc3c2NC=NCC3O)c1 (stereo unspecified) : 50

----------
Molecular target: Adenosine deaminase (Bos taurus)
Experiment: Inhibitory activity against calf intestinal Adenosine deaminase (ADA)
pKi: −log10 of the molar value.
measurement-kind: pKi

Illustrative cases are given below, each with its answer.
molecule: O=C(O)c1cccc(CCCn2cnc3c2NC=NCC3O)c1 (stereo not drawn)
measurement-kind: pKi
observed: 5.62

molecule: COC(=O)c1cccc(CCCn2cnc3c2NC=NCC3O)c1 (stereo not drawn)
measurement-kind: pKi
observed: 6.80

molecule: COC(=O)c1ccc(C)c(CCCn2cnc3c2NC=NCC3O)c1 (stereo not drawn)
measurement-kind: pKi
observed: 7.10

A: O=C(O)c1sccc1CCCn1cnc2c1NC=NCC2O (stereo not drawn)
B: COc1ccc(C(=O)O)cc1CCCn1cnc2c1NC=NCC2O (stereo not drawn)
C: O=C(O)c1ccccc1OCCn1cnc2c1NC=NCC2O (stereo not drawn)
List from greatest to least pKi. Would you mind listing the labels in the order asked for?
A, B, C
(A: 5.85, B: 5.25, C: 3.57)

----------
Test: Inhibitory activity against porcine heart Adenylate deaminase (AMPDA)
Parameters: species or system Sus scrofa
measurement-kind: Ki (µM)

compound: CCc1ccc(C(=O)O)cc1CCn1cnc2c1NC=NCC2O (configuration not stated)
observed: 0.08

1: O=C(O)c1cc(CCn2cnc3c2NC=NCC3O)cc(-c2ccc(Cl)cc2)c1 (configuration not stated)
2: O=C(O)c1cc(CCn2cnc3c2NC=NCC3O)cc(-c2cccc(Cl)c2)c1 (configuration not stated)
3: O=C(O)Cc1cccc(CCn2cnc3c2NC=NCC3O)c1 (configuration not stated)
Rank order required: Ki, descending. Labels, requested order.
3, 1, 2
(3: 44.1 µM, 1: 0.29 µM, 2: 0.18 µM)

----------
Experiment: Inhibitory activity against porcine heart Adenylate deaminase (AMPDA)
Design: species or system Sus scrofa
pKi: −log10 of the molar value.
measurement-kind: pKi

compound: Cc1ccc(CCCn2cnc3c2NC=NCC3O)c(C(=O)O)c1 (stereo not given)
measurement-kind: pKi
observed: 4.93

compound: O=C(O)Cc1cccc(Cn2cnc3c2NC=NCC3O)c1 (stereo not given)
measurement-kind: pKi
observed: 4.95

compound: CCOC(=O)c1cc(CCn2cnc3c2NC=NCC3O)ccc1C (stereo not given)
measurement-kind: pKi
observed: 4.92

compound: O=C(O)c1ccccc1CCCn1cnc2c1NC=NCC2O (stereo not given)
measurement-kind: pKi
observed: 4.90

----------
Below is a list of entries, each paired with its recorded Ki value.
Target: Adenosine deaminase (Bos taurus)
Sequence (P56658 whole entry): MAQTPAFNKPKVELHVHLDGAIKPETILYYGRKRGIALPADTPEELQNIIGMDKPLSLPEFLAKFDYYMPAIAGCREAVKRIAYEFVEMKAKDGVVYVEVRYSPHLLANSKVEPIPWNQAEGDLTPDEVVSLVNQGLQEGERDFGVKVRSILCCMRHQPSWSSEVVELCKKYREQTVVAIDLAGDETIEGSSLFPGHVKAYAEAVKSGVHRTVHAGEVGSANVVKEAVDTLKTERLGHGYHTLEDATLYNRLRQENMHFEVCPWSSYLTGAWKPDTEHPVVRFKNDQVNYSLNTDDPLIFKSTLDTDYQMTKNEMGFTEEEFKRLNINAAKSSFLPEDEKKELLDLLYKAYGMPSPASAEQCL
Experiment: Inhibitory activity against calf intestinal Adenosine deaminase (ADA)

Illustrative cases are given below, each with its answer.
compound: O=C(O)c1ccc(CCn2cnc3c2NC=NCC3O)s1 (stereo not given)
study-target: Adenosine deaminase (Bos taurus)
Ki: > 7.5 µM
--
compound: O=C(O)c1cccc(OCCn2cnc3c2NC=NCC3O)c1 (stereo not given)
study-target: Adenosine deaminase (Bos taurus)
Ki: > 7.5 µM
--
compound: CCOC(=O)c1cc(CCn2cnc3c2NC=NCC3O)cc(-c2ccccc2)c1 (stereo not given)
study-target: Adenosine deaminase (Bos taurus)
Ki: > 7.5 µM

Memo: CCc1ccc(C(=O)O)cc1CCn1cnc2c1NC=NCC2O (stereo not given) , reported Ki: > 7.5 µM

Short answer for O=C(O)c1ccc(Cn2cnc3c2NC=NCC3O)cc1 (stereo not given) : Ki was > 7.5 µM

Lab note: O=C(O)c1ccc(Cn2cnc3c2NC=NCC3O)o1 (stereo not given) gave Ki of > 3.4 µM

Field Ki (entry COC(=O)c1cccc(C(C)C)c1CCCn1cnc2c1NC=NCC2O (stereo not given) ) reads > 7.5 µM

Form field Ki, entry O=C(O)c1ccccc1CCCn1cnc2c1NC=NCC2O (stereo not given) : 6.1 µM
